System: OCI-Ly7
TEST_SUMMARY: CellTiter-Glo Luminescent cell viability assay, OCI-Ly7
Type: cell-based
CONDITION_SUMMARY: Homo sapiens, OCI-Ly7 cell line, 72 hours at 37° C., read-out: ED50 (the source's name)
ASSAY_READOUT: EC50
Kindly write the number and append the unit.

Below are worked cases with known answers.
• Cc1cc(-c2nc(C(=O)Nc3cc4oc(N5CCOCC5)nc4nc3N3CC[C@@H](O)C3)co2)ccn1 = 13 µM
• CC[C@@H]1[C@H](F)C(=O)N[C@@H]1COc1nccc2cc(C(N)=O)c(OC)cc12 = 9.8 µM

Please examine the following record next.
Please provide the recorded EC50 for `Cc1ccc(-n2nc(C3CCN(C(C)C)CC3)cc2NC(=O)c2cccc(-c3cnn(CC(N)=O)c3)n2)nc1` , tested on OCI-Ly7. 3.11 µM

FYI, the data here is from patent US20240391899A1.
